test system: K-562 leukemia; test: NCI tumour cell line growth inhibition, 48 h
Readout Label: TGI

Use these answered entries as a reference point.
- Cc1ccccc1-n1ncc(C(=O)c2ccccc2)c1N: > 25 µM
- COc1ccc2cc(-c3cc4c(oc3=O)-c3ccccc3OC4O)c(=O)oc2c1 (centres undefined): > 100 µM

Asked: Answer with the recorded TGI for the compound listed here: COc1ccc2c(c1)[n+](=O)c(C(=O)c1ccco1)c(C(F)(F)F)n2[O-]
Given back: > 100 µM

---

test system: HOP-92 NSCLC; assay: NCI tumour cell line growth inhibition, 48 h
Readout Label: TGI

Use these answered entries as a reference point.
- Cc1cc(O)ccc1C1=NN(c2ccc(S(C)(=O)=O)cc2)C(=O)CC1: > 100 µM
- CC1CC[C@@]2(OC1)OC1CC3C4CCC5C[C@@H](OC6OC(CO)C(OC7OC(CO)C(O)C(OC8OC(CO)C(O)C(OC9OC(CO)C(O)C(O)C9O)C8O)C7OC7OC(CO)C(O)C(O)C7O)C(O)C6O)[C@H](O)C[C@]5(C)C4CC[C@]3(C)C1[C@@H]2C (stereo not given in full): > 80.5 µM
- [O-][n+]1ccccc1S: > 100 µM
- CCCCCCCCCCCCCCCCOCC(Cl)COP(=O)(O)OP(=O)(O)OCC1OC(n2cc(C)c(=O)[nH]c2=O)CC1O (stereo not given): > 100 µM

Now consider the entry below.
Asked: Answer with the recorded TGI for the compound listed here: COC(=O)/C=C1/CCC(C)(C(=O)NS(=O)(=O)c2ccc(C)cc2)C1(C)C (stereo not given)
Given back: > 100 µM

---

Reported TGI values for a set of compounds
test system: NCI-H226 lung; assay: NCI tumour cell line growth inhibition, 48 h

• C=C(C)[C@@H]1CC[C@]2(C(=O)O)CC[C@]3(C)[C@H](CC[C@@H]4[C@@]5(C)C[C@@H](CC#Cc6ccc(C(F)(F)F)cc6)[C@H](O)C(C)(C)[C@@H]5CC[C@]43C)[C@@H]12 = > 100 µM
• Cc1ncc2c(=O)c3c(oc2n1)c1ccccc1n3Cc1ccccc1 = > 100 µM

Asked: Answer with the recorded TGI for the compound listed here: CC(=O)Nc1cc2c3c(c1)CCCN3CCC2
Given back: > 100 µM

Asked: Answer with the recorded TGI for the compound listed here: CN(C)CCN=C1Nc2ccccc2C(=S)N2CSCC12 (centres undefined)
Given back: > 100 µM

---

system: OVCAR-8 ovarian; assay: NCI tumour cell line growth inhibition, 48 h
Readout Label: TGI

Use these answered entries as a reference point.
- O=C(c1ccccc1)c1ccc(-n2c3ccccc3c3ccc4c(c32)C(=O)C=CC4=O)cc1: 27.2 µM
- O=C(O)CCc1ccc2c(c1)C(=O)CC2: > 100 µM
- Cc1cccc2c1N(C(=O)/C=C\C(=O)O)C(c1c(C)[nH]c3ccccc13)C2 (stereo unspecified): > 100 µM
- COc1cccc2c1OC(c1ccc(C#N)cc1)C([N+](=O)[O-])=C2 (stereo unspecified): 5.28 µM
- COc1ccc(C(SCC(N)C(=O)O)(c2ccccc2)c2ccccc2)cc1 (stereo unspecified): > 100 µM

Asked: Answer with the recorded TGI for the compound listed here: O=C1NC(=O)C2(CCCCCC2)N1
Given back: > 100 µM

Asked: Answer with the recorded TGI for the compound listed here: CN(C)S(=O)(=O)/N=C/c1cccc(/C=N/S(=O)(=O)N(C)C)c1
Given back: > 100 µM

---

system: HCC-2998 colon; assay: NCI tumour cell line growth inhibition, 48 h
Readout Label: TGI

- CCN1C(=O)C(C)S/C1=N\NC(=O)CSc1nc2ccccc2c(=O)n1CC (stereo not drawn): > 100 µM
- c1ccc([P+](Cc2ccccc2C[P+](c2ccccc2)(c2ccccc2)c2ccccc2)(c2ccccc2)c2ccccc2)cc1: > 100 µM

Now consider the entry below.
Asked: Look up and report measured TGI (HCC-2998 colon) for the following compound: Cc1cc2c(cc1C)[n+](=O)c(C(=O)C/C(=N/OCCCc1ccccc1)C(=O)Nc1cc(Cl)ccc1Cl)c(C)n2[O-]
Given back: > 100 µM

---

Reported GI50 values for a set of molecules
tested on: PC-3 prostate; assay: NCI tumour cell line growth inhibition, 48 h

Asked: Answer with the recorded GI50 for the molecule listed here: COc1ccc2cc(-c3cc4c(oc3=O)-c3ccccc3OC4O)c(=O)oc2c1 (centres undefined)
Given back: 14700 nM

---

tested on: SK-MEL-2 melanoma; assay: NCI tumour cell line growth inhibition, 48 h
Readout Label: TGI

* O=C(O)C[C@H]1CCCCC12CCOC2=O (stereo not given in full) | > 100 µM

Asked: Answer with the recorded TGI for the compound listed here: CC(=O)NC1=C(NCCN(C)C)C(=O)c2ccccc2C1=O
Given back: > 50 µM

---

test system: NCI/ADR-RES ovarian; experiment: NCI tumour cell line growth inhibition, 48 h
Readout Label: TGI

Use these answered entries as a reference point.
• Cc1ccc(-c2cc3c(SCC(=O)Nc4cc(C(F)(F)F)ccc4Cl)nccn3n2)cc1 = > 100 µM
• Nc1nc(OCc2cc(Br)cs2)c2[nH]cnc2n1 = > 100 µM

Now consider the entry below.
Asked: Answer with the recorded TGI for the compound listed here: O=c1[nH]nc(Cc2ccccc2)n1/N=C\c1ccccc1
Given back: > 100 µM

---

test system: DU-145 prostate; assay: NCI tumour cell line growth inhibition, 48 h
Reported TGI values for a set of compounds
Field format: number, assumed µM, no unit text.

- Cc1ccc2ncnc(N(CC(C)C)CC(C)C)c2c1: 32.4

Now consider the entry below.
Asked: Answer with the recorded TGI for the compound listed here: [O-][n+]1ccccc1S
Given back: 46.8

---

system: MDA-MB-231 breast; assay: NCI tumour cell line growth inhibition, 48 h
Readout Label: GI50

Asked: Look up and report measured GI50 (MDA-MB-231 breast) for the following compound: CS(=O)(=O)Nc1ccc(-c2cc(-c3ccccc3)cc(C(N)=O)c2N)cc1
Given back: > 25 µM

Asked: Look up and report measured GI50 (MDA-MB-231 breast) for the following compound: Cc1ccc(-c2cc3c(SCC(=O)Nc4cc(C(F)(F)F)ccc4Cl)nccn3n2)cc1
Given back: 94.5 µM

Asked: Look up and report measured GI50 (MDA-MB-231 breast) for the following compound: O=[N+]([O-])c1ccc(Sc2ncnc3nc[nH]c23)c2nonc12
Given back: 8.15 µM

---

test system: HT29 colon; assay: NCI tumour cell line growth inhibition, 48 h
Readout Label: TGI

Use these answered entries as a reference point.
- Cc1cc(S(=O)(=O)Nc2cc(N)[nH]n2)c(SCc2nc(N)nc(N(C)C)n2)cc1Cl: > 10 µM
- Cn1cc(C2=C(c3cn(C)c4c([N+](=O)[O-])cccc34)C(=O)NC2=O)c2ccccc21: > 25 µM
- COC(=O)C(C(=O)C(=O)Nc1nc(=S)[nH][nH]1)c1csc(-n2nc(-c3ccccc3)cc2-c2ccccc2)n1 (centres undefined): > 100 µM
- O=C(CN(/C=C/C(=O)C(F)(F)F)c1ccc(Cl)cc1)c1ccccc1: > 100 µM

Asked: Look up and report measured TGI (HT29 colon) for the following compound: Cc1ccc(NC(=O)C(=O)C(C#N)c2nc(-c3ccc(-c4ccccc4)cc3)cs2)c(C)c1 (centres undefined)
Given back: > 1 µM

Asked: Look up and report measured TGI (HT29 colon) for the following compound: C=CCSC1=N/C(=C\c2cccs2)C(=O)N1CC=C
Given back: > 100 µM

Asked: Look up and report measured TGI (HT29 colon) for the following compound: Nc1nc(OCc2cc(Br)cs2)c2[nH]cnc2n1
Given back: > 100 µM

Asked: Look up and report measured TGI (HT29 colon) for the following compound: CCOC(=O)[C@@]12C[C@](/C=C/OC)(O[Si](C)(C)C)[C@@]13c1cc(OC)c(OC)cc1CCN3C(=O)C2O (some centres undefined)
Given back: > 100 µM

Asked: Look up and report measured TGI (HT29 colon) for the following compound: C[C@]12CC/C(=N\O)C=C1CC[C@@H]1[C@@H]2CC[C@]2(C)C(=N/O)/C(=C/c3ccc([N+](=O)[O-])cc3)C[C@@H]12
Given back: 21.9 µM

Asked: Look up and report measured TGI (HT29 colon) for the following compound: S=C1CC(c2ccccc2)Sc2ccccc2N1 (centres undefined)
Given back: > 100 µM

Asked: Look up and report measured TGI (HT29 colon) for the following compound: Cl.Fc1c[c-]c(-c2ccccn2)c(F)c1.[Pt].c1ccc(P(c2ccccc2)C([PH+](c2ccccc2)c2ccccc2)[PH+](c2ccccc2)c2ccccc2)cc1
Given back: 21.6 µM

Asked: Look up and report measured TGI (HT29 colon) for the following compound: COc1cccc(/C=N/[N-]C(N)=O)c1[O-].[Ni+2].[OH3+].c1ccc(-c2ccccn2)nc1
Given back: > 100 µM

Asked: Look up and report measured TGI (HT29 colon) for the following compound: N#Cc1c(N)[nH]c(=S)c(C#N)c1-c1ccccc1
Given back: > 100 µM

Asked: Look up and report measured TGI (HT29 colon) for the following compound: COC(=O)[C@@H]1CN(C(C)=O)C(=O)N1C(=O)OCc1ccccc1
Given back: > 100 µM
